- system.tested: FGFR1 (UniProt P11362)
- Sequence (P11362 whole entry, looked up): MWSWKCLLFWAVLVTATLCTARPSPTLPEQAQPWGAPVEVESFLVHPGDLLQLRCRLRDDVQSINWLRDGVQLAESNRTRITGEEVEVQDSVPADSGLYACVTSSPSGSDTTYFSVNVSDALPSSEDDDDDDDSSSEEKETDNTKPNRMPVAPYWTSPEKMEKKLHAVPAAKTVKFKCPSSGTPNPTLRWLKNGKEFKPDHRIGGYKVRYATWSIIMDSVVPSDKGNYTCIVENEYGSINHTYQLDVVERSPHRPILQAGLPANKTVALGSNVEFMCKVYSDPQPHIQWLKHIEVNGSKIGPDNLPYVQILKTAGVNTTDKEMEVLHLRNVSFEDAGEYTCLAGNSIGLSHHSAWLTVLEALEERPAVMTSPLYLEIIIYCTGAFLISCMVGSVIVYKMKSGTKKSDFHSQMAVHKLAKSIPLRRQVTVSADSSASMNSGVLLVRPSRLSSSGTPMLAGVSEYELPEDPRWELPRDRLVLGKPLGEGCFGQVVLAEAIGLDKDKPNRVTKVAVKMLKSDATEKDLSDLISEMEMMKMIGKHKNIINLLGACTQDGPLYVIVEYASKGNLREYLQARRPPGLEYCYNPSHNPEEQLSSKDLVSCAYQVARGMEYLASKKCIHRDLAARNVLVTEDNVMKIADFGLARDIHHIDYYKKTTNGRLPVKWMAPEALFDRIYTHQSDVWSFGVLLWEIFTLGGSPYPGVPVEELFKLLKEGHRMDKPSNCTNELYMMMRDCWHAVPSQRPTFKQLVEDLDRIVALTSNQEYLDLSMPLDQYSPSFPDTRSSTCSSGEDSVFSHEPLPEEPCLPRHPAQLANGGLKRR
- assay.name: phosphorylation enrichment, bacterial display (enrichment ratio); higher = better substrate or ligand; peptides without Tyr show the background;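 also: 11-residue human phosphosite peptides and single-mutation variants displayed on the E. coli surface, counted by deep sequencing, each peptide's frequency after selection divided by its frequency in the unselected input library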;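 also: frequency after pTyr selection over input frequency; kinase dosed for 20-30% of maximal phosphorylation in three min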
Reported phosphorylation enrichment values follow for various sequences
result.type: phosphorylation enrichment

- chain: "TKVVHYWKWIK [KLK2_Y249_R250W]"
  recorded.result: 0.489
- chain: "TNITEYCRDLI [RECQL_Y492_K487T]"
  recorded.result: 0.498
- chain: "CTTIHYNYLCN [TP53_Y234_M237L]"
  recorded.result: 0.505

* * *

- system.tested: MERTK (UniProt Q12866)
- Sequence (Q12866 whole entry, looked up): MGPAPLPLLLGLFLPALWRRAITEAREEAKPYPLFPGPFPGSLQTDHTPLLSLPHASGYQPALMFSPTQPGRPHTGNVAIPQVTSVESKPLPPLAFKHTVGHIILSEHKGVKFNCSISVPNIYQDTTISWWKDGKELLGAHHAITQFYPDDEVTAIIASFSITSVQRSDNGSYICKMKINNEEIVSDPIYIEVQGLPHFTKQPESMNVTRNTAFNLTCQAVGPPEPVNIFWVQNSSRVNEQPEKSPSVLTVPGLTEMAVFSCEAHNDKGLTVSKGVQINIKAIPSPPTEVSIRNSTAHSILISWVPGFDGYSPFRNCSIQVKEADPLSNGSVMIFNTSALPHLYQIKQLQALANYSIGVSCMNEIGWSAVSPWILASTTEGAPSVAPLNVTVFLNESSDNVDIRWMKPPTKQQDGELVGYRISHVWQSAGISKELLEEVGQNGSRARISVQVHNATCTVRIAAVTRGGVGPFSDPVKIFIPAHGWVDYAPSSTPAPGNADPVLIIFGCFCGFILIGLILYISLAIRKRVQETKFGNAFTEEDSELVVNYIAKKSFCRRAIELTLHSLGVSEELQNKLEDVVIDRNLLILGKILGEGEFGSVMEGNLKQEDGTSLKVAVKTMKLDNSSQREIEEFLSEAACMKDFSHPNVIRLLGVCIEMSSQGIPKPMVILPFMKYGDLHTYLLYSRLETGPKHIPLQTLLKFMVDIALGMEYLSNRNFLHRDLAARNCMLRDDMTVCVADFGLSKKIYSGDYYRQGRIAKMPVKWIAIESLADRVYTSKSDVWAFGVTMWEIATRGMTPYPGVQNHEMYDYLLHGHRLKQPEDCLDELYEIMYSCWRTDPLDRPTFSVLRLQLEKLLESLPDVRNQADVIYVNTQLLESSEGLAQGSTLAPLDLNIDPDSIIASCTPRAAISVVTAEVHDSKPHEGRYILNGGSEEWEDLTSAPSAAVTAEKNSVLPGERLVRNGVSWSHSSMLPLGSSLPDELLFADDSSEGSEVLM
- assay.name: phosphorylation enrichment, bacterial display (enrichment ratio); higher = better substrate or ligand; peptides without Tyr show the background
Short version: phosphorylation enrichment at least 0.7 is label 1, less is label 0.

- chain: "ILGRTHYVNHE [NEDD4_Y627_Y627H]"
  system.tested: "MERTK (UniProt Q12866)"
  group.label: "label 0"
- chain: "KLIETYSSKNY [PLP1_Y50_F51S]"
  system.tested: "MERTK (UniProt Q12866)"
  group.label: "label 0"
- chain: "LSNPAYCLLLA [DDR1_Y513_R514C]"
  system.tested: "MERTK (UniProt Q12866)"
  group.label: "label 1"
- chain: "NIKKEYTKMVQ [PMS2_Y181_A182T]"
  system.tested: "MERTK (UniProt Q12866)"
  group.label: "label 0"
- chain: "EKEKEYMLPLD [DNM2_Y563_K562E]"
  system.tested: "MERTK (UniProt Q12866)"
  group.label: "label 0"
- chain: "NSNAAYEQSHF [LRIF1_Y714]"
  system.tested: "MERTK (UniProt Q12866)"
  group.label: "label 0"
- chain: "LYEDRYLLGTS [ASS1_Y87]"
  system.tested: "MERTK (UniProt Q12866)"
  group.label: "label 1"
- chain: "QEIATYPRLLE [KRT14_Y415_R416P]"
  system.tested: "MERTK (UniProt Q12866)"
  group.label: "label 0"
- chain: "KMKGDYYRSLA [YWHAG_Y130_Y133S]"
  system.tested: "MERTK (UniProt Q12866)"
  group.label: "label 0"
- chain: "CPPKVYELMIA [ABL2_Y515_R519I]"
  system.tested: "MERTK (UniProt Q12866)"
  group.label: "label 1"
